- Protocol: calorie-restriction mimetic ROS inhibitors, yeast – validation compound set, pilot screen (AID 2706);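 note: yeast exposed to compound for one week at 30 degrees C before staining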
- Details: S. cerevisiae aging, superoxide DHE fluorescence; at 10 µM
Active and inactive are the calls of the source.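 Rule for the calls: active = superoxide response below 65% of plate, a cut near 3 SD across the whole screen; inactive = the rest.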
Classes used: active, inactive

Molecule: C=CC1=C(C(=O)O)N2C(=O)C(NC(=O)Cc3ccccc3)C2SC1 (stereo not drawn)
Assigned Label: inactive

Molecule: CN1CCN2c3ccccc3Cc3ccccc3C2C1 (stereo not drawn)
Assigned Label: inactive

Molecule: CC1(C)Cc2ccccc2-c2n[nH]c(=S)n21
Assigned Label: inactive

Molecule: O=C(Nc1ccc(C(=O)NC2CCCCC2)cc1)c1cccnc1
Assigned Label: inactive

Molecule: CCCC(=O)O[C@]1(C(=O)CCl)[C@@H](C)C[C@H]2[C@@H]3CCC4=CC(=O)C=C[C@]4(C)[C@@]3(F)C(=O)C[C@@]21C
Assigned Label: inactive

Molecule: CC(C)c1ccc(/C=C/C(=O)O)cc1
Assigned Label: inactive

Molecule: O=C(O)/C=C/c1cccc(OCc2ccccc2)c1
Assigned Label: inactive

Molecule: Cc1oc2cc(O)cc(O)c2c(=O)c1-c1ccc2c(c1)OCCCO2
Assigned Label: inactive

Molecule: CCCCOc1ccc(C(=O)CCN2CCCCC2)cc1
Assigned Label: inactive

Molecule: CN1C(C(=O)Nc2ccccn2)=C(O)c2ccccc2S1(=O)=O
Assigned Label: inactive

Molecule: CC(=O)C1=C(O)C(=O)N(Cc2cccnc2)C1c1ccc(C(C)C)cc1 (stereo not drawn)
Assigned Label: inactive

Molecule: COc1ccc(S(N)(=O)=O)cc1C(N)=O
Assigned Label: inactive

Molecule: O=C(O)CCCc1ccccc1
Assigned Label: inactive

Molecule: CC1(CC(=O)Nc2ccccc2)NC(=S)N(c2ccccc2)N1 (stereo not drawn)
Assigned Label: inactive

Molecule: CC(=O)N(C(C)=O)c1nc2nc(C)cc(C)n2n1
Assigned Label: inactive

Molecule: Cc1ccc(C2CC(=O)C(C=NCCN3CCN(CC(=O)Nc4cc(C)cc(C)c4)CC3)=C(O)C2)cc1 (stereo not drawn)
Assigned Label: inactive

Molecule: NC(=O)C1CCCNC1 (stereo not drawn)
Assigned Label: inactive

Molecule: CC(=O)N1CCN(c2ccc(NC(=O)/C=C/c3ccccc3)cc2)CC1
Assigned Label: inactive

Molecule: O=C(O)CCSCCC(=O)O
Assigned Label: inactive

Molecule: CC(C)(C)n1c(=O)[nH]c2c(c1=O)CCC2
Assigned Label: inactive

Molecule: CC(C)OC(=O)C1C(=O)CC(C)(O)C(C(=O)OC(C)C)C1c1cccc(O)c1 (stereo not drawn)
Assigned Label: inactive

Molecule: CN(C)CCCN1c2ccccc2CCc2ccccc21
Assigned Label: inactive

Molecule: CC(C)(C)C(=O)N1CCCC1C(=O)O (stereo not drawn)
Assigned Label: inactive

Molecule: COc1ccc(CCN2CNc3c(c(=O)n(C)c(=O)n3C)C2)cc1OC
Assigned Label: inactive

Molecule: COc1ccc(NC(=O)CC(c2ccccc2)c2ccco2)cc1 (stereo not drawn)
Assigned Label: inactive

Molecule: CC(C)NS(=O)(=O)c1ccc(OCC(=O)Nc2cccc(F)c2)cc1
Assigned Label: inactive

Molecule: c1ccc(SSc2ccccc2)cc1
Assigned Label: inactive

Molecule: O=C1ON=C(c2ccc(Cl)cc2)/C1=C/c1ccc(O)cc1
Assigned Label: inactive

Molecule: O=[N+]([O-])c1ccc(O)c2ncccc12
Assigned Label: active

Molecule: O=c1[nH]c(=O)n(C2CCCO2)cc1F (stereo not drawn)
Assigned Label: inactive

Molecule: COCCCN1C(=O)C(=O)/C(=C(/O)c2ccc3c(c2)CC(C)O3)C1c1cccnc1 (stereo not drawn)
Assigned Label: inactive

Molecule: O=C(O)CCCCCN=C1CCc2ccccc2N1
Assigned Label: inactive

Molecule: CCOC(=O)C(NC(C)=O)C(O)c1ccc([N+](=O)[O-])cc1 (stereo not drawn)
Assigned Label: inactive

Molecule: COc1ccccc1N1CCN(CC(O)COc2cccc3ccccc23)CC1 (stereo not drawn)
Assigned Label: inactive

Molecule: COc1ccc(C(Cl)=C(c2ccc(OC)cc2)c2ccc(OC)cc2)cc1
Assigned Label: inactive

Molecule: CCN1C(=O)C(CC(=O)Nc2ccc(OC)cc2)N(CCc2ccc(F)cc2)C1=S (stereo not drawn)
Assigned Label: inactive

Molecule: COCC(C)NC(=O)c1ccc(CN2CCc3ccccc3C2)cc1 (stereo not drawn)
Assigned Label: inactive

Molecule: C=CCNC(=O)c1ccc(-c2cccc([N+](=O)[O-])c2)o1
Assigned Label: inactive

Molecule: COc1cc2c(cc1OC)C1(CCCC1)CNC2c1cccc([N+](=O)[O-])c1 (stereo not drawn)
Assigned Label: inactive

Molecule: CC1(C)C(=O)OC(/C=C\c2ccccc2)C(C)(C)C1=O (stereo not drawn)
Assigned Label: inactive

Molecule: COC(=O)C1=C(C)N(Cc2ccco2)C(=O)/C1=C\c1ccc([N+](=O)[O-])cc1
Assigned Label: inactive

Molecule: COc1cccc(OCc2nnc(-c3cccs3)o2)c1
Assigned Label: inactive

Molecule: COc1cc(NS(=O)(=O)c2ccc(N)cc2)nc(OC)n1
Assigned Label: inactive

Molecule: COc1cccc(N2C(=O)CC(c3c[nH]c4ccccc34)C2=O)c1 (stereo not drawn)
Assigned Label: inactive

Molecule: COc1cc2c(cc1OC)C(=S)NC(C)(C)C2
Assigned Label: inactive

Molecule: COc1cc(CNc2nnnn2C)ccc1OCc1ccc(F)cc1Cl
Assigned Label: active

Molecule: CC1(C)C(=O)OC(c2cccs2)C2(CCCCC2)C1=O (stereo not drawn)
Assigned Label: inactive

Molecule: CCN1CCn2c3c(c4cc(Cl)ccc42)CCCC31 (stereo not drawn)
Assigned Label: inactive
